system: Human immunodeficiency virus 1; test: Antiviral activity against HIV1 3B harboring reverse transcriptase E138K mutant infected in human MT4 cells assessed as protection against virus induced cytotoxicity after 5 days by MTT assay; type: functional, cell-based; conditions: Human immunodeficiency virus 1, 3B, MT4, 120 h
Assay readout: EC50
Units required after the number.

Task: Which measured EC50 value corresponds to Cc1ccnc2c1NC(=O)c1cccnc1N2C1CC1 [NEVIRAPINE] ?
Result: 271 nM

Task: Which measured EC50 value corresponds to Cc1cc(C#N)cc(C)c1Oc1nc(NC2CCN(Cc3ccc(F)cc3)CC2)nc2ccsc12 ?
Result: 34.4 nM

Task: Which measured EC50 value corresponds to Cc1cc(C)c(Oc2nc(NC3CCN(Cc4ccc(C(N)=O)cc4)CC3)nc3ccsc23)c(C)c1 ?
Result: 21.9 nM

Task: Which measured EC50 value corresponds to Cc1cc(C#N)cc(C)c1Oc1nc(NC2CCN(Cc3ccc(S(C)(=O)=O)cc3)CC2)nc2ccsc12 ?
Result: 39 nM

Task: Which measured EC50 value corresponds to Cc1cc(C)c(Oc2nc(NC3CCN(Cc4ccncc4)CC3)nc3ccsc23)c(C)c1 ?
Result: 20.9 nM

----------
assay: Selectivity index, ratio of CC50 for human mock-infected MT4 cells to EC50 for wild type HIV1 3B harboring reverse transcriptase infected in human MT4 cells; assay type: toxicity, cell-based; conditions: MT4 cells (mock-infected for CC50, HIV-1 infected for EC50)
Provide the reported selectivity ratio of each item.
Quick one: just the number, no unit, thanks!

Task: Which measured selectivity ratio value corresponds to Cc1cc(C#N)cc(C)c1Oc1nc(NC2CCN(Cc3ccc(F)cc3F)CC2)nc2ccsc12 ?
Result: 185

Task: Which measured selectivity ratio value corresponds to Cc1cc(C#N)cc(C)c1Oc1nc(NC2CCN(Cc3ccc(NS(C)(=O)=O)cc3)CC2)nc2ccsc12 ?
Result: 44200

Task: Which measured selectivity ratio value corresponds to Cc1cc(C#N)cc(C)c1Oc1nc(NC2CCN(Cc3ccccc3C#N)CC2)nc2ccsc12 ?
Result: 1010

Task: Which measured selectivity ratio value corresponds to CNS(=O)(=O)c1ccc(CN2CCC(Nc3nc(Oc4c(C)cc(C#N)cc4C)c4sccc4n3)CC2)cc1 ?
Result: 2790

Task: Which measured selectivity ratio value corresponds to Cc1cc(C)c(Oc2nc(NC3CCN(Cc4ccncc4)CC3)nc3ccsc23)c(C)c1 ?
Result: 747

Task: Which measured selectivity ratio value corresponds to Cc1cc(C)c(Oc2nc(NC3CCN(Cc4ccc(S(C)(=O)=O)cc4)CC3)nc3ccsc23)c(C)c1 ?
Result: 595

Task: Which measured selectivity ratio value corresponds to Cc1cc(C)c(Oc2nc(NC3CCN(Cc4cccc(F)c4)CC3)nc3ccsc23)c(C)c1 ?
Result: 628

Task: Which measured selectivity ratio value corresponds to Cc1cc(C)c(Oc2nc(NC3CCN(Cc4ccc(F)cc4F)CC3)nc3ccsc23)c(C)c1 ?
Result: 380

Task: Which measured selectivity ratio value corresponds to Cc1ccccc1CN1CCC(Nc2nc(Oc3c(C)cc(C#N)cc3C)c3sccc3n2)CC1 ?
Result: 1100

Task: Which measured selectivity ratio value corresponds to Cc1cc(C)c(Oc2nc(NC3CCN(Cc4ccc(C(N)=O)cc4)CC3)nc3ccsc23)c(C)c1 ?
Result: 896

Task: Which measured selectivity ratio value corresponds to Cc1cc(C#N)cc(C)c1Oc1nc(NC2CCN(Cc3ccncc3)CC2)nc2ccsc12 ?
Result: 2000

Task: Which measured selectivity ratio value corresponds to Cc1cc(C#N)cc(C)c1Oc1nc(NC2CCN(Cc3ccccc3F)CC2)nc2ccsc12 ?
Result: 23000

Task: Which measured selectivity ratio value corresponds to Cc1cc(C#N)cc(C)c1Oc1nc(NC2CCN(Cc3ccc(F)cc3)CC2)nc2ccsc12 ?
Result: 18700

Task: Which measured selectivity ratio value corresponds to COC(=O)c1ccc(CN2CCC(Nc3nc(Oc4c(C)cc(C#N)cc4C)c4sccc4n3)CC2)cc1 ?
Result: 12700

Task: Which measured selectivity ratio value corresponds to Cc1cc(C#N)cc(C)c1Oc1nc(NC2CCN(Cc3ccc([N+](=O)[O-])cc3)CC2)nc2ccsc12 ?
Result: 615

----------
Provide the reported selectivity ratio of each item.
assay: Selectivity index, ratio of CC50 for human mock-infected MT4 cells to EC50 for HIV1 RES056 harboring reverse transcriptase K103N/Y181C double mutant infected in human MT4 cells; type: toxicity, cell-based; conditions: MT4 cells (mock-infected for CC50, HIV-1 infected for EC50)
Quick one: just the number, no unit, thanks!

Task: Which measured selectivity ratio value corresponds to Cc1cc(C#N)cc(C)c1Oc1nc(NC2CCN(Cc3cccc(C#N)c3)CC2)nc2ccsc12 ?
Result: 13

Task: Which measured selectivity ratio value corresponds to CNS(=O)(=O)c1ccc(CN2CCC(Nc3nc(Oc4c(C)cc(C#N)cc4C)c4sccc4n3)CC2)cc1 ?
Result: 136

Task: Which measured selectivity ratio value corresponds to Cc1cc(C#N)cc(C)c1Oc1nc(NC2CCN(Cc3ccc(F)cc3)CC2)nc2ccsc12 ?
Result: 131

Task: Which measured selectivity ratio value corresponds to CC(=O)NS(=O)(=O)c1ccc(CN2CCC(Nc3nc(Oc4c(C)cc(C#N)cc4C)c4sccc4n3)CC2)cc1 ?
Result: 20

Task: Which measured selectivity ratio value corresponds to Cc1cc(C)c(Oc2nc(NC3CCN(Cc4ccc(F)cc4)CC3)nc3ccsc23)c(C)c1 ?
Result: 2

Task: Which measured selectivity ratio value corresponds to Cc1cc(C#N)cc(C)c1Oc1nc(NC2CCN(Cc3cccc(F)c3)CC2)nc2ccsc12 ?
Result: 267

Task: Which measured selectivity ratio value corresponds to Cc1cc(C)c(Oc2nc(NC3CCN(Cc4ccc(C(N)=O)cc4)CC3)nc3ccsc23)c(C)c1 ?
Result: 18

----------
experiment: Cytotoxicity against human mock-infected MT4 cells assessed as reduction in cell viability after 5 days by MTT assay; format: toxicity, cell-based
Assay readout: CC50 at 120 h

Task: Which measured CC50 at 120 h value corresponds to CC(=O)NS(=O)(=O)c1ccc(CN2CCC(Nc3nc(Oc4c(C)cc(C#N)cc4C)c4sccc4n3)CC2)cc1 ?
Result: > 3.03 µM

Task: Which measured CC50 at 120 h value corresponds to CNS(=O)(=O)c1ccc(CN2CCC(Nc3nc(Oc4c(C)cc(C#N)cc4C)c4sccc4n3)CC2)cc1 ?
Result: 4.42 µM

Task: Which measured CC50 at 120 h value corresponds to Cc1cc(C#N)cc(C)c1Oc1nc(NC2CCN(Cc3cccc(F)c3)CC2)nc2ccsc12 ?
Result: 76.7 µM

Task: Which measured CC50 at 120 h value corresponds to COC(=O)c1ccc(CN2CCC(Nc3nc(Oc4c(C)cc(C)cc4C)c4sccc4n3)CC2)cc1 ?
Result: 24.9 µM

Task: Which measured CC50 at 120 h value corresponds to Cc1cc(C#N)cc(C)c1Oc1nc(NC2CCN(Cc3cccc(C#N)c3)CC2)nc2ccsc12 ?
Result: 4.52 µM

Task: Which measured CC50 at 120 h value corresponds to Cc1cc(C#N)cc(C)c1Oc1nc(NC2CCN(Cc3cccc(S(N)(=O)=O)c3)CC2)nc2ccsc12 ?
Result: > 228 µM

Task: Which measured CC50 at 120 h value corresponds to Nc1ccn([C@@H]2CS[C@H](CO)O2)c(=O)n1 [LAMIVUDINE] ?
Result: > 87.2 µM

Task: Which measured CC50 at 120 h value corresponds to Cc1ccnc2c1NC(=O)c1cccnc1N2C1CC1 [NEVIRAPINE] ?
Result: > 15 µM

Task: Which measured CC50 at 120 h value corresponds to CC(C)Nc1cccnc1N1CCN(C(=O)c2cc3cc(NS(C)(=O)=O)ccc3[nH]2)CC1 [DELAVIRDINE] ?
Result: > 43.8 µM

Task: Which measured CC50 at 120 h value corresponds to Cc1cc(C)c(Oc2nc(NC3CCN(Cc4cccc(C#N)c4)CC3)nc3ccsc23)c(C)c1 ?
Result: 17.2 µM

Task: Which measured CC50 at 120 h value corresponds to Cc1cc(C#N)cc(C)c1Oc1nc(NC2CCN(Cc3ccccc3F)CC2)nc2ccsc12 ?
Result: 189 µM

Task: Which measured CC50 at 120 h value corresponds to Cc1cc(C#N)cc(C)c1Oc1nc(NC2CCN(Cc3ccc(C#N)cc3)CC2)nc2ccsc12 ?
Result: 5.36 µM

Task: Which measured CC50 at 120 h value corresponds to CCOC(=O)c1ccc(CN2CCC(Nc3nc(Oc4c(C)cc(C#N)cc4C)c4sccc4n3)CC2)cc1 ?
Result: ≥ 231 µM

Task: Which measured CC50 at 120 h value corresponds to Cc1cc(C)c(Oc2nc(NC3CCN(Cc4ccc([N+](=O)[O-])cc4)CC3)nc3ccsc23)c(C)c1 ?
Result: 6.39 µM

Task: Which measured CC50 at 120 h value corresponds to Cc1cc(C#N)cc(C)c1Oc1nc(NC2CCN(Cc3ccncc3)CC2)nc2ccsc12 ?
Result: 20.6 µM

Task: Which measured CC50 at 120 h value corresponds to Cc1cc(C#N)cc(C)c1Oc1nc(NC2CCN(Cc3ccc(F)cc3)CC2)nc2ccsc12 ?
Result: 141 µM

Task: Which measured CC50 at 120 h value corresponds to Cc1cc(C#N)cc(C)c1Oc1nc(NC2CCN(Cc3ccc([N+](=O)[O-])cc3)CC2)nc2ccsc12 ?
Result: 4.66 µM

Task: Which measured CC50 at 120 h value corresponds to Cc1cc(C)c(Oc2nc(NC3CCN(Cc4ccc(C(N)=O)cc4)CC3)nc3ccsc23)c(C)c1 ?
Result: 5.81 µM

Task: Which measured CC50 at 120 h value corresponds to Cc1cc(C#N)cc(C)c1Oc1nc(NC2CCN(Cc3ccc(Br)cc3)CC2)nc2ccsc12 ?
Result: 24.3 µM

Task: Which measured CC50 at 120 h value corresponds to Cc1cc(C)c(Oc2nc(NC3CCN(Cc4ccc(F)cc4F)CC3)nc3ccsc23)c(C)c1 ?
Result: 14 µM

Task: Which measured CC50 at 120 h value corresponds to Cc1cc(C#N)cc(C)c1Oc1nc(NC2CCN(Cc3ccc(C(N)=O)cc3)CC2)nc2ccsc12 ?
Result: 95.4 µM

Task: Which measured CC50 at 120 h value corresponds to Cc1cn([C@H]2C[C@H](N=[N+]=[N-])[C@@H](CO)O2)c(=O)[nH]c1=O [ZIDOVUDINE] ?
Result: > 93.5 µM

Task: Which measured CC50 at 120 h value corresponds to Cc1cc(C)c(Oc2nc(NC3CCN(Cc4cccc(C(N)=O)c4)CC3)nc3ccsc23)c(C)c1 ?
Result: 7.64 µM

Task: Which measured CC50 at 120 h value corresponds to O=C1Nc2ccc(Cl)cc2[C@@](C#CC2CC2)(C(F)(F)F)O1 [EFAVIRENZ] ?
Result: > 6.34 µM

Task: Which measured CC50 at 120 h value corresponds to Cc1ccccc1CN1CCC(Nc2nc(Oc3c(C)cc(C#N)cc3C)c3sccc3n2)CC1 ?
Result: 10.4 µM

Task: Which measured CC50 at 120 h value corresponds to Cc1cc(C)c(Oc2nc(NC3CCN(Cc4ccc(F)cc4)CC3)nc3ccsc23)c(C)c1 ?
Result: 11.9 µM

Task: Which measured CC50 at 120 h value corresponds to Cc1cc(C)c(Oc2nc(NC3CCN(Cc4ccncc4)CC3)nc3ccsc23)c(C)c1 ?
Result: 5.65 µM

Task: Which measured CC50 at 120 h value corresponds to Cc1cc(C)c(Oc2nc(NC3CCN(Cc4cccc(F)c4)CC3)nc3ccsc23)c(C)c1 ?
Result: 24.6 µM

Task: Which measured CC50 at 120 h value corresponds to Cc1cc(C#N)cc(C)c1Oc1nc(NC2CCN(Cc3ccccc3C#N)CC2)nc2ccsc12 ?
Result: 5.79 µM

Task: Which measured CC50 at 120 h value corresponds to Cc1cc(C)c(Oc2nc(NC3CCN(Cc4ccc(S(N)(=O)=O)cc4)CC3)nc3ccsc23)c(C)c1 ?
Result: 16.5 µM

Task: Which measured CC50 at 120 h value corresponds to Cc1cc(C#N)cc(C)c1Oc1nc(NC2CCN(Cc3ccc(S(C)(=O)=O)cc3)CC2)nc2ccsc12 ?
Result: 22.3 µM

Task: Which measured CC50 at 120 h value corresponds to Cc1cc(C#N)cc(C)c1Oc1nc(NC2CCN(Cc3cccc(C(N)=O)c3)CC2)nc2ccsc12 ?
Result: > 48.8 µM

Task: Which measured CC50 at 120 h value corresponds to Cc1cc(C)c(Oc2nc(NC3CCN(Cc4ccc(S(C)(=O)=O)cc4)CC3)nc3ccsc23)c(C)c1 ?
Result: 3.42 µM

Task: Which measured CC50 at 120 h value corresponds to Cc1cc(C#N)cc(C)c1Oc1nc(NC2CCN(Cc3ccc(NS(C)(=O)=O)cc3)CC2)nc2ccsc12 ?
Result: 68.3 µM

Task: Which measured CC50 at 120 h value corresponds to COC(=O)c1ccc(CN2CCC(Nc3nc(Oc4c(C)cc(C#N)cc4C)c4sccc4n3)CC2)cc1 ?
Result: 41.4 µM

Task: Which measured CC50 at 120 h value corresponds to Cc1cc(C#N)cc(C)c1Oc1nc(Nc2ccc(C#N)cc2)nc(N)c1Br [ETRAVIRINE] ?
Result: > 4.59 µM

Task: Which measured CC50 at 120 h value corresponds to Cc1cc(C#N)cc(C)c1Oc1nc(NC2CCN(Cc3ccc(S(N)(=O)=O)cc3)CC2)nc2ccsc12 ?
Result: > 228 µM

Task: Which measured CC50 at 120 h value corresponds to Cc1cc(C#N)cc(C)c1Oc1nc(NC2CCN(Cc3ccc(F)cc3F)CC2)nc2ccsc12 ?
Result: 4.08 µM
